- Tested on: Mycobacterium tuberculosis
- Method: Antitubercular activity against Mycobacterium tuberculosis H37Rv ATCC 27294 after 5 to 8 days by microplate alamar blue assay
- Format: functional
Parameter MIC: see the listing below.

Illustrative cases are given below, each with its answer.
- Query smiles: "O=C1Nc2c(cccc2[N+](=O)[O-])C(=O)/C1=N/Nc1ccc(Cl)c(Cl)c1"
  MIC: "< 6.25 µg/mL"
- Query smiles: "O=C1Nc2c(cccc2[N+](=O)[O-])C(=O)/C1=N/Nc1ccc(Cl)cc1"
  MIC: "< 6.25 µg/mL"
- Query smiles: "CC(=O)c1ccc(N/N=C2\\C(=O)Nc3ccc(Cl)cc3C2=O)cc1"
  MIC: "> 6.25 µg/mL"

Per the reported Mycobacterium tuberculosis data, O=C1Nc2c(cccc2[N+](=O)[O-])C(=O)/C1=N/Nc1ccc([N+](=O)[O-])cc1 has MIC of < 6.25 µg/mL

Per the reported Mycobacterium tuberculosis data, CC(=O)c1ccc(N/N=C2\C(=O)Nc3c(cccc3[N+](=O)[O-])C2=O)cc1 has MIC of < 6.25 µg/mL

Per the reported Mycobacterium tuberculosis data, CN1C(=O)/C(=N\Nc2ccccc2[N+](=O)[O-])C(=O)c2ccccc21 has MIC of < 6.25 µg/mL

Per the reported Mycobacterium tuberculosis data, Cc1cccc(N/N=C2\C(=O)Nc3c(cccc3[N+](=O)[O-])C2=O)c1C has MIC of > 6.25 µg/mL

Per the reported Mycobacterium tuberculosis data, O=C1Nc2c(ccc(Cl)c2Cl)C(=O)/C1=N/Nc1ccc([N+](=O)[O-])cc1 has MIC of < 6.25 µg/mL

Per the reported Mycobacterium tuberculosis data, O=C1Nc2cc([N+](=O)[O-])ccc2C(=O)/C1=N/Nc1cccc(Cl)c1Cl has MIC of > 6.25 µg/mL

---

- Tested on: Mycobacterium tuberculosis
- Method: Antitubercular activity against Mycobacterium tuberculosis H37Rv ATCC 27294 after 5 to 8 days by microplate alamar blue assay
- Format: functional
Parameter MIC: see the listing below.

Illustrative cases are given below, each with its answer.
- Query smiles: "CN1C(=O)/C(=N\\Nc2ccc(Cl)cc2)C(=O)c2ccccc21"
  Test value: "> 6.25 µg/mL"
- Query smiles: "O=C1Nc2c(cccc2[N+](=O)[O-])C(=O)/C1=N/Nc1ccccc1-c1ccccc1"
  Test value: "> 6.25 µg/mL"
- Query smiles: "O=C1Nc2c(Cl)cccc2C(=O)/C1=N/Nc1ccc(Cl)c(Cl)c1"
  Test value: "> 6.25 µg/mL"
- Query smiles: "O=C1Nc2c(cccc2[N+](=O)[O-])C(=O)/C1=N/Nc1ccccc1"
  Test value: "< 6.25 µg/mL"

# ---- query compound ----
Per the reported Mycobacterium tuberculosis data, O=C1Nc2cc([N+](=O)[O-])ccc2C(=O)/C1=N/Nc1ccccc1-c1ccccc1 has MIC of < 6.25 µg/mL

---

Parameter MIC: see the listing below.
- Tested on: Mycobacterium tuberculosis
- Method: Antitubercular activity against Mycobacterium tuberculosis H37Rv ATCC 27294 after 5 to 8 days by microplate alamar blue assay
- Format: functional

Illustrative cases are given below, each with its answer.
- Query smiles: "O=C1Nc2c(cccc2[N+](=O)[O-])C(=O)/C1=N/Nc1ccc(F)cc1"
  MIC: "> 6.25 µg/mL"
- Query smiles: "COc1ccc(N/N=C2\\C(=O)Nc3ccc(Cl)cc3C2=O)c(C)c1"
  MIC: "> 6.25 µg/mL"
- Query smiles: "Cc1c(Cl)cccc1N/N=C1\\C(=O)Nc2cc([N+](=O)[O-])ccc2C1=O"
  MIC: "< 6.25 µg/mL"

The molecule O=C1Nc2ccc(Cl)cc2C(=O)/C1=N/Nc1ccc(Cl)cc1 showed MIC equal to < 6.25 µg/mL

The molecule COc1ccc(N/N=C2\C(=O)Nc3c(ccc(Cl)c3Cl)C2=O)cc1 showed MIC equal to > 6.25 µg/mL

The molecule O=C1Nc2c(ccc(Cl)c2Cl)C(=O)/C1=N/Nc1cccc(F)c1 showed MIC equal to < 6.25 µg/mL

The molecule O=C1Nc2cc(Cl)ccc2C(=O)/C1=N/Nc1ccc(F)cc1 showed MIC equal to < 6.25 µg/mL

The molecule O=C1Nc2c(Cl)cccc2C(=O)/C1=N/Nc1cccc([N+](=O)[O-])c1 showed MIC equal to > 6.25 µg/mL

The molecule Cc1ccc(N/N=C2\C(=O)Nc3cc([N+](=O)[O-])ccc3C2=O)cc1 showed MIC equal to < 6.25 µg/mL

The molecule CN1C(=O)/C(=N\Nc2ccc(Cl)c(Cl)c2)C(=O)c2ccccc21 showed MIC equal to > 6.25 µg/mL

The molecule COc1ccc(N/N=C2\C(=O)Nc3c(cccc3[N+](=O)[O-])C2=O)c(C)c1 showed MIC equal to > 6.25 µg/mL

The molecule Cc1cccc(C)c1N/N=C1\C(=O)Nc2ccc(Cl)cc2C1=O showed MIC equal to > 6.25 µg/mL

The molecule O=C1Nc2c(cccc2[N+](=O)[O-])C(=O)/C1=N/Nc1ccccc1[N+](=O)[O-] showed MIC equal to < 6.25 µg/mL

The molecule COc1ccc(N/N=C2\C(=O)c3cccc([N+](=O)[O-])c3N(C)C2=O)c(C)c1 showed MIC equal to > 6.25 µg/mL

The molecule O=C1Nc2ccc(Cl)cc2C(=O)/C1=N/Nc1cccc([N+](=O)[O-])c1 showed MIC equal to < 6.25 µg/mL

The molecule Cc1cccc(N/N=C2\C(=O)Nc3c(ccc(Cl)c3Cl)C2=O)c1 showed MIC equal to < 6.25 µg/mL

The molecule Cc1ccccc1N/N=C1/C(=O)c2ccccc2N(C)C1=O showed MIC equal to < 6.25 µg/mL

The molecule CC(=O)c1ccc(N/N=C2\C(=O)Nc3c(ccc(Cl)c3Cl)C2=O)cc1 showed MIC equal to < 6.25 µg/mL

The molecule COc1ccc(N/N=C2\C(=O)Nc3ccc(Cl)cc3C2=O)cc1 showed MIC equal to < 6.25 µg/mL

The molecule O=C1Nc2c(Cl)ccc(Cl)c2C(=O)/C1=N/Nc1cccc(Cl)c1 showed MIC equal to > 6.25 µg/mL

---

Parameter MIC: see the listing below.
- System: Mycobacterium tuberculosis
- Method: Antitubercular activity against Mycobacterium tuberculosis H37Rv ATCC 27294 after 5 to 8 days by microplate alamar blue assay
- Type: functional

Illustrative cases are given below, each with its answer.
- Query smiles: "COc1ccccc1N/N=C1\\C(=O)Nc2cc([N+](=O)[O-])ccc2C1=O"
  Reported endpoint: "MIC"
  Test value: "< 6.25 µg/mL"
- Query smiles: "CC(=O)c1ccc(N/N=C2/C(=O)c3ccccc3N(C)C2=O)cc1"
  Reported endpoint: "MIC"
  Test value: "> 6.25 µg/mL"
- Query smiles: "Cc1ccc(N/N=C2\\C(=O)Nc3c(Cl)cccc3C2=O)cc1"
  Reported endpoint: "MIC"
  Test value: "> 6.25 µg/mL"

The compound O=C1Nc2c(ccc(Cl)c2Cl)C(=O)/C1=N/Nc1ccccc1 showed MIC equal to < 6.25 µg/mL

The compound O=C1Nc2c(Cl)cccc2C(=O)/C1=N/Nc1ccccc1Cl showed MIC equal to > 6.25 µg/mL

The compound Cc1cccc(N/N=C2\C(=O)Nc3c(cccc3[N+](=O)[O-])C2=O)c1 showed MIC equal to < 6.25 µg/mL

The compound COc1ccccc1N/N=C1\C(=O)Nc2c(cccc2[N+](=O)[O-])C1=O showed MIC equal to > 6.25 µg/mL

The compound O=C1Nc2ccc(Cl)cc2C(=O)/C1=N/Nc1ccc(F)cc1 showed MIC equal to < 6.25 µg/mL

The compound O=C1Nc2c(cccc2[N+](=O)[O-])C(=O)/C1=N/Nc1cccc(Cl)c1 showed MIC equal to < 6.25 µg/mL

The compound Cc1ccc2c(c1)NC(=O)/C(=N\Nc1ccccc1Cl)C2=O showed MIC equal to > 6.25 µg/mL

---

Parameter MIC: see the listing below.
- Test system: Mycobacterium tuberculosis
- Method: Antitubercular activity against Mycobacterium tuberculosis H37Rv ATCC 27294 after 5 to 8 days by microplate alamar blue assay
- Type: functional

- Query smiles: "COc1ccc(N/N=C2\\C(=O)Nc3cc(Cl)ccc3C2=O)cc1"
  MIC: "> 6.25 µg/mL"
- Query smiles: "COc1ccc2c(c1)C(=O)/C(=N/Nc1ccccc1)C(=O)N2"
  MIC: "> 6.25 µg/mL"
- Query smiles: "O=C1Nc2cc(Cl)ccc2C(=O)/C1=N/Nc1ccccc1"
  MIC: "< 6.25 µg/mL"
- Query smiles: "CC(=O)c1ccc(N/N=C2\\C(=O)Nc3cc(Cl)ccc3C2=O)cc1"
  MIC: "> 6.25 µg/mL"
- Query smiles: "CC(=O)c1ccc(N/N=C2\\C(=O)Nc3c(Cl)cccc3C2=O)cc1"
  MIC: "> 6.25 µg/mL"

The compound Cc1cccc(N/N=C2\C(=O)Nc3ccccc3C2=O)c1 showed MIC equal to > 6.25 µg/mL

The compound O=C1Nc2cc(Cl)ccc2C(=O)/C1=N/Nc1ccc([N+](=O)[O-])cc1 showed MIC equal to > 6.25 µg/mL

The compound O=C1Nc2c(ccc(Cl)c2Cl)C(=O)/C1=N/Nc1cccc(Cl)c1 showed MIC equal to < 6.25 µg/mL

The compound O=C1Nc2ccccc2C(=O)/C1=N/Nc1ccccc1 showed MIC equal to < 6.25 µg/mL

The compound O=C1Nc2ccc(Cl)cc2C(=O)/C1=N/Nc1ccc(Cl)c(Cl)c1 showed MIC equal to < 6.25 µg/mL

The compound O=C1Nc2cc([N+](=O)[O-])ccc2C(=O)/C1=N/Nc1ccc(Br)cc1 showed MIC equal to < 6.25 µg/mL

The compound Cc1cccc(N/N=C2\C(=O)Nc3c(C)cccc3C2=O)c1 showed MIC equal to > 6.25 µg/mL
